system: A549; assay: Cytotoxicity against human A549 cells by MTT assay; assay type: functional, cell-based
Measured Attribute: IC50
Note: a bare number is incomplete; add the unit.

> print(dat)
                                   compound  data.value
1  CC1=C(C(=O)NCCC(=O)N2CCN(c3ccc([N+](=O)[O-])cc3)CC2)C(c2ccccc2)N2C(=N1)Sc1ccccc12 (configuration not stated)     11.2 µM

// below: IC50 requested for another compound
Item: CC1=C(C(=O)NCCC(=O)N2CCCCC2)C(c2ccccc2)N2C(=N1)Sc1ccccc12 (configuration not stated) | IC50: 18.1 µM

* * *

system: MCF7; assay: Cytotoxicity against human MCF7 cells by MTT assay; type: functional, cell-based
Measured Attribute: IC50 (µM)
Supply the numeric figure in µM, leaving out any unit text.

Below, 3 compounds whose answers are already recorded.
> print(dat)
                                   compound  unit.tag  data.value
1  COc1cccc2c1C(=O)c1c(O)c3c(c(O)c1C2=O)C[C@@](O)(C(=O)CO)C[C@@H]3O[C@H]1C[C@H](N)[C@H](O)[C@H](C)O1        µM        1.05
2  CC1=C(C(=O)N2CCN(c3ccc([N+](=O)[O-])cc3)CC2)C(c2ccccc2)N2C(=N1)Sc1ccccc12 (stereo not drawn)        µM          29
3  CC1=C(C(=O)N2CCOCC2)C(c2ccccc2)N2C(=N1)Sc1ccccc12 (stereo not drawn)        µM        10.1

Item: CC1=C(C(=O)N2CCCCC2)C(c2ccccc2)N2C(=N1)Sc1ccccc12 (stereo not drawn) | IC50: 11.7

Item: CC1=C(C(=O)N2CCN(c3ccccc3)CC2)C(c2ccccc2)N2C(=N1)Sc1ccccc12 (stereo not drawn) | IC50: 77.6

* * *

system: MCF7; test: Cytotoxicity against human MCF7 cells by MTT assay; assay type: functional, cell-based
// IC50 lookup, one value per entry
Supply the numeric figure in µM, leaving out any unit text.

Item: CC1=C(C(=O)NCCC(=O)N2CCN(c3ccc([N+](=O)[O-])cc3)CC2)C(c2ccccc2)N2C(=N1)Sc1ccccc12 (stereo not drawn) | IC50: 13.8

Item: CC1=C(C(=O)N2CCN(C)CC2)C(c2ccccc2)N2C(=N1)Sc1ccccc12 (stereo not drawn) | IC50: 0.58

Item: CC1=C(C(=O)NCCC(=O)N2CCCCC2)C(c2ccccc2)N2C(=N1)Sc1ccccc12 (stereo not drawn) | IC50: 16.8
